Origin of the recorded values: paper PMC2920546

# PROTOCOL DETAILS: Pharmacokinetics and tissue distribution in CD-1 mice
# Format: in vivo
# MEASUREMENT CONTEXT: female, mouse, liver, IP 10 mg/kg
QUANTITY: Tmax (min)

# SMILES REPRESENTATION, QUANTITY, EXPERIMENTAL VALUE
rows = [
    ("O=C1C(NCc2ccccc2)=CC2=NCCc3c[nH]c1c32", "Tmax", 4.8),
]

###

# PROTOCOL DETAILS: Pharmacokinetics and tissue distribution in CD-1 mice
# Type: in vivo
# MEASUREMENT CONTEXT: female, mouse, kidneys, IP 10 mg/kg
QUANTITY: half-life (min)

# SMILES REPRESENTATION, EXPERIMENTAL VALUE
measured = [
    ("O=C1C(NCc2ccccc2)=CC2=NCCc3c[nH]c1c32", 28.8),
]
